TARGET ENTITY: β-secretase I (BACE1) (Homo sapiens, UniProt P56817)
Sequence (P56817 46-501): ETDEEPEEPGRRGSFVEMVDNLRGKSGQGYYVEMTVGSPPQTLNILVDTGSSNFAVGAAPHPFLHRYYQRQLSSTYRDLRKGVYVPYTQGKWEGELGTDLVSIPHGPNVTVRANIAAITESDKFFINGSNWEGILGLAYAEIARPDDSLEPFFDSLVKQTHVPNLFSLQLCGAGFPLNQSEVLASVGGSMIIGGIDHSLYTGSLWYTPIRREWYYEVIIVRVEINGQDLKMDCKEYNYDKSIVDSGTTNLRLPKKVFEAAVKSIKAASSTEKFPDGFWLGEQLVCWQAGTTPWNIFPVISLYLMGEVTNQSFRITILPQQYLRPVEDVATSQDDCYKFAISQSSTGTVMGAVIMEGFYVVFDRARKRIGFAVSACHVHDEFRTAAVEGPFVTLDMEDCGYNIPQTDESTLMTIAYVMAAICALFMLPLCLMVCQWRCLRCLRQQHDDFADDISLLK
METHOD NOTES: Biochemical assay, automated (CyclOps), BACE1
EXPERIMENTAL SETUP: automated CyclOps bioassay
Decide by AUTOMATED ASSAY BACE1 pIC50: equal to or exceeding 8 means met, less means not met.

Please review the entries below; each comes with its answer.
[[record]]
smiles_data = "COc1ncc(-c2cccc3cnn(C)c23)c2c1C[C@]1(c3ccc(F)cc3F)N=C(N)SC[C@@H]1C2"
label_class = "not met"

[[record]]
smiles_data = "COc1ncc(-c2c(C)noc2C)c2c1C[C@]1(c3cc(OC4CCOCC4)ccc3F)N=C(N)SC[C@@H]1C2"
label_class = "not met"

[[record]]
smiles_data = "COc1ncc(-c2ccc(Cl)c(C)c2)c2c1C[C@]1(c3ccc(F)cc3F)N=C(N)SC[C@@H]1C2"
label_class = "not met"


API: above_or_equal(metric=AUTOMATED ASSAY BACE1 pIC50, cutoff=8) for item "COc1ncc(-c2cc(F)cc(F)c2)c2c1C[C@]1(c3ccc(F)cc3F)N=C(N)SC[C@@H]1C2"
met

API: above_or_equal(metric=AUTOMATED ASSAY BACE1 pIC50, cutoff=8) for item "COc1ncc(-c2cc(Cl)ccc2C)c2c1C[C@]1(c3ccc(F)cc3F)N=C(N)SC[C@@H]1C2"
not met

API: above_or_equal(metric=AUTOMATED ASSAY BACE1 pIC50, cutoff=8) for item "COc1ncc(-c2cccc3c2OCCC3)c2c1C[C@]1(c3ccc(F)cc3F)N=C(N)SC[C@@H]1C2"
not met

====

TARGET ENTITY: β-secretase II (BACE2) (Homo sapiens)
Sequence (Q9Y5Z0 63-518): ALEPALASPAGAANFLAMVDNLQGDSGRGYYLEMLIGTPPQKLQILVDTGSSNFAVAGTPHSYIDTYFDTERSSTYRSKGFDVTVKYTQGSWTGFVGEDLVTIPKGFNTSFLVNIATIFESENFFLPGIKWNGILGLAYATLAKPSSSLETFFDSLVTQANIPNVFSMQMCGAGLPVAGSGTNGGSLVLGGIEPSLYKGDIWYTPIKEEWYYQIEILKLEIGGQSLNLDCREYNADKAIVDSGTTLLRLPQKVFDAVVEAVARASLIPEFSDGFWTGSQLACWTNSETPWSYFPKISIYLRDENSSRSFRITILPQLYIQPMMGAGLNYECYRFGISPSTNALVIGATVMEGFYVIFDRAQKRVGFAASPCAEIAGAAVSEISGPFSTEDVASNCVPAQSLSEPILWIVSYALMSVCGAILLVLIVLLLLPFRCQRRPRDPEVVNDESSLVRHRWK
METHOD NOTES: Biochemical assay, automated (CyclOps), BACE2
EXPERIMENTAL SETUP: automated CyclOps bioassay
Decide by AUTOMATED ASSAY BACE2 pIC50: equal to or exceeding 6 means Fulfilled, less means Not fulfilled.

Please review the entries below; each comes with its answer.
[[record]]
smiles_data = "COc1ccc(OC)c(-c2cnc(OC)c3c2C[C@H]2CSC(N)=N[C@@]2(c2cc(OCc4ccccc4F)ccc2F)C3)c1"
target_entity = "β-secretase II (BACE2) (Homo sapiens)"
label_class = "Not fulfilled"

[[record]]
smiles_data = "COc1cc(C)c(-c2cnc(OC)c3c2C[C@H]2CSC(N)=N[C@@]2(c2cc(OCC4CCOCC4)ccc2F)C3)cn1"
target_entity = "β-secretase II (BACE2) (Homo sapiens)"
label_class = "Not fulfilled"

[[record]]
smiles_data = "COc1ncc(-c2cc(F)cc(F)c2)c2c1C[C@]1(c3ccc(F)cc3F)N=C(N)SC[C@@H]1C2"
target_entity = "β-secretase II (BACE2) (Homo sapiens)"
label_class = "Fulfilled"


API: above_or_equal(metric=AUTOMATED ASSAY BACE2 pIC50, cutoff=6) for item "COc1ncc(-c2c(C)noc2C)c2c1C[C@]1(c3cc(OCCC4CCCC4)ccc3F)N=C(N)SC[C@@H]1C2"
Not fulfilled

API: above_or_equal(metric=AUTOMATED ASSAY BACE2 pIC50, cutoff=6) for item "COc1ncc(-c2cc(C(F)(F)F)ccc2F)c2c1C[C@]1(c3ccc(F)cc3F)N=C(N)SC[C@@H]1C2"
Fulfilled

API: above_or_equal(metric=AUTOMATED ASSAY BACE2 pIC50, cutoff=6) for item "COc1ncc(-c2ccc(F)cc2C)c2c1C[C@]1(c3ccc(F)cc3F)N=C(N)SC[C@@H]1C2"
Fulfilled
